src = PubChem BioAssay (NCI)

Tested on: HCT-15 colon
Assay Details: NCI-60 one-dose screen, 48 h (100 = growth as untreated, 0 = no growth, -100 = all killed)
Condition Summary: 10 µM unless noted
This is part of a sample that, as a whole, favours compounds with a hit. Of some 83,000 tested, about 20% had one in any assay.
Criterion: growth strictly less than 20%. Met: YES. Not met: NO.

Molecule	Class Label
CN1CCC(c2c[nH]c3ccccc23)C1 (configuration not stated)	NO
Cc1cccc(N2CCN(C(C)C#N)CC2)c1 (configuration not stated)	NO

Input line: Just wondering, is growth of "Cc1ccc(S(=O)(=O)C(Cl)(Cl)Cl)cc1" below 20%?
Output line: NO

Input line: Hi there! Is growth for "[Cl][Hg][c]1cc[c]([Hg][Cl])o1" below 20%, do you know?
Output line: YES

Input line: Confirm or reject: growth of "Brc1ccc2c(c1)c(-c1nc(-c3c[nH]c4ncccc34)cs1)cn2CCN1CCCCC1" lies strictly below 20%
Output line: NO

Input line: Dear colleague, could you confirm whether growth of O=C1C2CCC1C(N1CCCC1)CC2 (configuration not stated) falls below 20%? Thanks.
Output line: NO

Input line: Given the entry "CCOC(=O)[C@@H](C)C[C@H](Cc1ccccc1)NC(=O)c1csc([C@@H](C[C@H](C(C)C)N(C)C(=O)[C@H](CC)NC(=O)[C@H]2CCCCN2C)OC(C)=O)n1" , would its reported growth be below 20%?
Output line: YES

###

Test system: M14 melanoma
Assay Details: NCI-60 one-dose screen, 48 h
Condition Summary: 10 µM unless noted
This is part of a sample that, as a whole, favours compounds with a hit. Of some 83,000 tested, about 20% had one in any assay. Active and inactive are the calls of the source. How the source made its calls: active means growth percent below 10; inactive means the rest.
Your reply should match one of these outcome classes. active, inactive

Molecule	Class Label
COC(=O)C12CC(NC(=O)c3csc([C@@H](C[C@H](C(C)C)N(C)C(=O)[C@@H](NC(=O)[C@H]4CCCCN4C)C(C)C)OC(C)=O)n3)(C1)C2	active
CCC(=O)Nc1ccc(Cl)c(Cl)c1	inactive
CC(C)[C@]12O[C@H]1[C@@H]1O[C@]13[C@]1(O[C@H]1C[C@H]1c4c(C(=O)c5ccccc5)oc(OC(=O)c5ccccc5)c4CC[C@@]13C)[C@@H]2O	active
CC(=O)OCC1O[C@@H]([S-])C(OC(C)=O)[C@H](OC(C)=O)[C@@H]1OC(C)=O.[Au+].c1ccc(CN2[CH-]N(Cc3ccccc3)C(c3ccccc3)=C2c2ccccc2)cc1	inactive

Input line: So what was the verdict on "NC(CCl)CCl" in this test?
Output line: inactive

Input line: Record request — test call for CC1[C@H](C)OC(=O)CC(O)CC(O)CC(O)CCC(O)C(O)C[C@]2(O)CC(O)C(C(=O)O)C(CC(OC3O[C@H](C)[C@@H](O)[C@H](N)[C@@H]3O)/C=C/C=C/C=C/C=C/CC/C=C/C=C/[C@H](C)[C@H]1O)O2 (some centres not stated)
Output line: inactive

Input line: Field: outcome | Entry: "COC(=O)[C@@H](C)C[C@H](Cc1ccccc1)NC(=O)c1csc([C@@H](C[C@H](C(C)C)N(C)C(=O)C2(NC(=O)[C@H]3CCCCN3C)CC2)OC(C)=O)n1"
Output line: active

###

Tested on: UACC-257 melanoma
Assay Details: NCI-60 one-dose screen, 48 h (100 = growth as untreated, 0 = no growth, -100 = all killed)
Condition Summary: 10 µM unless noted
Compounds without any hit were thinned out: in the full panel of roughly 83,000, 20% have a hit.
Task for the reader: assign each of the following molecules its reported growth.
Answers are plain numbers, in %.

Molecule	Endpoint Result
Fc1c[c-]c(-c2ccccn2)c(F)c1.[CH3-].[Pt+2].c1ccc([PH+](c2ccccc2)c2ccccn2)cc1	0.865

Would you kindly look at the next entry?
# growth (molecule: CC[C@@H]1[C@@H](C)O[C@@](O)([C@@H](C)[C@H](O)[C@H](C)[C@H]2OC(=O)/C=C/C=C/[C@H](C)[C@@H]([C@@H](C)[C@@H](O)[C@H](C)[C@@]3(O)C[C@@H](O[C@H]4C[C@@H](O)[C@H](O)C(C)O4)[C@H](CC)[C@@H](C)O3)OC(=O)/C=C/C=C/[C@@H]2C)C[C@H]1O[C@@H]1C[C@@H](O)[C@H](O)C(C)O1 (some centres not stated) ) is -89.5
